assay.procedure: NFAT Signaling Pathway (AID 444);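 also: carbachol stimulus at about its EC50 of 1 µM final; % is scaled to controls: 0 for no effect and ±100 for the full control effect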
assay.setup: Jurkat NFAT-bla M1, carbachol, beta-lactamase ratio, 5 h; at 7.69 µM (top of the series) unless noted
Results filed as inconclusive are left out. The source made the active and inactive calls. Calls follow the shape of the dose curve; as a rule, active = well fitted curve in either direction with a large enough effect (not every such curve was filed as active); inconclusive = small, poorly fitted or top-dose-only effect, or another doubt; inactive = flat fitted curve, though single readings scatter.
value.kind: activity change, negative = inhibition

Name the recorded activity change, negative = inhibition of the item `COCCn1c(=O)c(-c2ccc(Cl)cc2)nc2cnc(N3CCOCC3)nc21` in your answer. 7.69% (inactive)

Quick one: give measured activity change, negative = inhibition for `COc1ccc(CNc2ncncc2-c2c(C)noc2C)c(OC)c1` 9.48% (inactive)

Output activity change, negative = inhibition of `O=c1c(-c2ccc(Cl)cc2)nc2cncnc2n1Cc1ccccc1Cl` -29.5% (inactive)
